- Assay overview: self-splicing fitness, log relative to wild type (ln ratio); higher = more splicing; Tetrahymena group I intron in knt gene, E. coli kanamycin selection, DiMSum; sequences stand for … in CUCUCU…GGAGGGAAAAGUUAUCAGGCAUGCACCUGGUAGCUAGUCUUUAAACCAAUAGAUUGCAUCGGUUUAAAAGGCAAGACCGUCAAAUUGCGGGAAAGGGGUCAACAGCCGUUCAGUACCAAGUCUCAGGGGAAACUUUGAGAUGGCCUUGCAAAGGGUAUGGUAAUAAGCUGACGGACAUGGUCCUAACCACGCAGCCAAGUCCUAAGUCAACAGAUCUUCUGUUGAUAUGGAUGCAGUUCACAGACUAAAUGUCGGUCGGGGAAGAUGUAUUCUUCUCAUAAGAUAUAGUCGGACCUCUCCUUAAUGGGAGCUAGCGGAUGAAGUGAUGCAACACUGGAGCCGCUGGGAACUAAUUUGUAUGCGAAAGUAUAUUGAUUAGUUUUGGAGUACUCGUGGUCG;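 also: selection with 25 µg/mL kanamycin versus none on LB agar overnight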
- Experimental conditions: 37 °C
Measured parameter: self-splicing fitness (ln)
The answer should be a number; do not append a unit.

Known results for sequences:
| Chain sequence | Measured parameter | Meas value |
| --- | --- | --- |
| GAGGAGCAAUAUUACGCGGU | self-splicing fitness (ln) | -2.76 |
| GGAUAGCAAUAUUACGCGUU | self-splicing fitness (ln) | -2.06 |
| GCACAGCAAUAUUACGUGAU | self-splicing fitness (ln) | 0.114 |
| CUAAAGCAAUAUUACGUAGG | self-splicing fitness (ln) | -1.2 |
| GCUGAGCAAUAUUACGAGGG | self-splicing fitness (ln) | -2.45 |
| CGUAAGCAAUAUUACGGACG | self-splicing fitness (ln) | -1.89 |
| GACGAGCAAUAUUACGUCGU | self-splicing fitness (ln) | -2.34 |
| AUAUAGCAAUAUUACGGCGC | self-splicing fitness (ln) | -0.869 |
| CAGGAGCAAUAUUACGUAUG | self-splicing fitness (ln) | -1.5 |
| CCUGAGCAAUAUUACGAUAG | self-splicing fitness (ln) | -0.775 |

self-splicing fitness (ln) in this record for GCUCAGCAAUAUUACGGGUG : -0.211

// field: self-splicing fitness (ln); key: GUCAAGCAAUAUUACGGUAU ; value = -0.662

So, UCUUAGCAAUAUUACGAUCU ? Its self-splicing fitness (ln) was -2.04

The recorded self-splicing fitness (ln) for ACAGAGCAAUAUUACGCCUU is -1.9

Memo: AACUAGCAAUAUUACGAUGA , reported self-splicing fitness (ln): -0.0286

Recorded self-splicing fitness (ln) (sequence UAUGAGCAAUAUUACGGAGA ): -2.34
